All values here come from ChEMBL document CHEMBL3507680.

measurement_description: Human HepG2 cell viability assay in 384 well format
Type: toxicity, cell-based
Set-up: dose 125 nL, time 70.5 hour; concentration not given beside the values
particulars: HepG2 cells, read-out: Inhibition
cytotoxicity at 70.5 h reference
Enter your answer as a number in %; do not include the unit.

Use these answered entries as a reference point.
CN(C)C(=O)CN1C[C@@H]2CC[C@H](C1)N(Cc1cccc(Cl)c1Cl)C2 | 7.51
Cc1ccc(NC(=O)N2CCCC2)c(OCC2CCCO2)c1 (stereo not drawn) | -16.8
CC(=O)Nc1ccc(SCC(O)COCc2ccccc2)cc1 (stereo not drawn) | -12.4
CCn1cc(C(=O)N2CCCC(c3nccs3)C2)cn1 (stereo not drawn) | -2.34
Cc1noc(C)c1C(=O)N1C[C@@H]2CCCO[C@@H]2[C@H](N(C)C)C1 | -8.14
NCc1cccc(NC(=O)CCN2CCOCC2)c1 | -9.57
O=C(C1CC=CC1)N1CCc2c(COCc3ccncc3)cncc2C1 | -10.9
COCCCN(CCOC)C(=O)Nc1ccc(C)cc1C | 0.857
COCC1c2c(cnn2C)CCN1Cc1ccsc1 (stereo not drawn) | -22.9
NC(=O)CN(C(=O)Cc1cccc(C(F)(F)F)c1)C1CCCC1 | -2.84

The value of cytotoxicity at 70.5 h measured for the molecule Cc1ccsc1CNC(=O)N1CCC(Cc2cnn(C)c2)C1 (stereo not drawn) turned out to be -3.88

The value of cytotoxicity at 70.5 h measured for the molecule "CN(Cc1ccsc1)C(=O)Nc1ccc(S(C)(=O)=O)nc1" turned out to be 2.4

The value of cytotoxicity at 70.5 h measured for the molecule "Cc1ccc(CN2C[C@H](N3CCOCC3)[C@@H]3OCCC[C@@H]32)o1" turned out to be -0.951

The value of cytotoxicity at 70.5 h measured for the molecule "Cn1ccc(C(=O)NCc2ccccc2CN2CCCCC2)cc1=O" turned out to be -7.11

====

measurement_description: Human HepG2 cell viability assay in 384 well format
Format: toxicity, cell-based
Set-up: dose 125 nL, time 70.5 hour; concentration not given beside the values
particulars: HepG2 cells, read-out: Inhibition
cytotoxicity at 70.5 h reference
Enter your answer as a number in %; do not include the unit.

Use these answered entries as a reference point.
CN1CC(=O)N(c2cnn(C)c2)CC12CCN(CC1CC1)C2 (configuration not stated) | -2.29
CCC(=O)NC1CCCN(c2cncc(OCc3ccccc3)n2)C1 (configuration not stated) | -0.318
C[C@@H]1CN(c2nc(N)nc3c2CCC3)CC[C@@]1(O)C1CCC1 | 4.77
Cc1ccnc(N2CCC(OCCN3CCCCC3)C2)n1 (configuration not stated) | -8.76
CCCc1nc(NCCCOCC)c2c(n1)c(C)nn2CC | -18.2
Cc1cnn(C2CCCN(C(=O)c3ccc(OCC4CC4)nc3)C2)c1 (configuration not stated) | -3.84

The value of cytotoxicity at 70.5 h measured for the compound "COc1ccc(S(=O)(=O)N2C[C@H](OC)[C@]3(CCCO3)C2)cc1" turned out to be -16.2

The value of cytotoxicity at 70.5 h measured for the compound Nc1nc2c(c(NCC(c3cccnc3)N3CCOCC3)n1)CCCC2 (configuration not stated) turned out to be -12.1

The value of cytotoxicity at 70.5 h measured for the compound COc1cc(C(=O)N2CCCC(CNS(C)(=O)=O)C2)ccc1C (configuration not stated) turned out to be 15.8

The value of cytotoxicity at 70.5 h measured for the compound CCN1CCN(CC(O)c2ccc(F)cc2)CC1 (configuration not stated) turned out to be -14.7

The value of cytotoxicity at 70.5 h measured for the compound COc1ncnc(N)c1CNCC(C)Oc1ccccc1Cl (configuration not stated) turned out to be -3.69

The value of cytotoxicity at 70.5 h measured for the compound Cc1noc(C2CCCN(Cn3cc(Br)cn3)C2)n1 (configuration not stated) turned out to be -8.2

====

measurement_description: Human HepG2 cell viability assay in 384 well format
Assay type: toxicity, cell-based
Set-up: dose 125 nL, time 70.5 hour; concentration not given beside the values
particulars: HepG2 cells, read-out: Inhibition
cytotoxicity at 70.5 h reference
Enter your answer as a number in %; do not include the unit.

Use these answered entries as a reference point.
CCCc1nc(CN(CC)C(=O)c2ccc3c(c2)nnn3C)no1 | -2.39
CC(C)CN1CCCn2nc(CNC(=O)c3cccnc3O)cc2C1 | 14.1
COc1ccccc1C(C)(C)NCc1ccc(C)o1 | -5.83
Cc1nsc(NC(=O)NC2CCOCC2)n1 | 13.1
Cc1cnc(N)nc1N1CCN(CCCO)CC1 | -10.3

The value of cytotoxicity at 70.5 h measured for the compound "Cc1ccc(-c2nc(CN3CCc4cnc(C)nc4C3)no2)cc1" turned out to be 0.992

The value of cytotoxicity at 70.5 h measured for the compound Cc1csc(C2CCCCN2C(=O)CCCn2cncn2)n1 (configuration not stated) turned out to be -9.21

====

cytotoxicity at 70.5 h reference
measurement_description: Human HepG2 cell viability assay in 384 well format
Format: toxicity, cell-based
Parameters: dose 125 nL, time 70.5 hour; concentration not given beside the values
particulars: HepG2 cells, read-out: Inhibition
Enter your answer as a number in %; do not include the unit.

Use these answered entries as a reference point.
CCSc1ncc(-c2cc(C3CC3)nc(N)c2C#N)cn1 | -4.52
Cc1cnc(N2CCCOC(CN3CCCCC3)C2)nc1 (configuration not stated) | -5.72

The value of cytotoxicity at 70.5 h measured for the compound NC(=O)c1cnn2c1NCC(CNC1(c3ccccc3)CCC1)C2 (configuration not stated) turned out to be -9.04

The value of cytotoxicity at 70.5 h measured for the compound Cc1nn(C)c(C)c1S(=O)(=O)NCC(C)(O)c1ccc2c(c1)OCO2 (configuration not stated) turned out to be -1.59

The value of cytotoxicity at 70.5 h measured for the compound "O=C(NC1CC1)c1cc(NC(=O)N2CCOCC2)ccc1Cl" turned out to be -15.3

The value of cytotoxicity at 70.5 h measured for the compound CSCCC(C)(O)CNC(=O)c1ccsc1 (configuration not stated) turned out to be 0.568

====

cytotoxicity at 70.5 h reference
measurement_description: Human HepG2 cell viability assay in 384 well format
Format: toxicity, cell-based
Set-up: dose 125 nL, time 70.5 hour; concentration not given beside the values
particulars: HepG2 cells, read-out: Inhibition
Enter your answer as a number in %; do not include the unit.

Use these answered entries as a reference point.
CN(C)CCNC(=O)Cn1cnc2cc(NC(=O)C3CC3)ccc21 | -10.6
CC(CCSc1ccccc1)N1CCN(C(=O)c2ccccc2O)CC1 (configuration not stated) | 36.1
COc1ccc(O[C@H]2COCCN(Cc3c[nH]c4ccccc34)C2)cc1 | 1.44
COC(=O)c1sccc1S(=O)(=O)NCCc1ccoc1 | -5.25
CCc1cccc(NC(=O)CCN2CC=C(c3cnn(C)c3)CC2)c1 | -5.53
CN(C)C(=O)COCC1CN(Cc2ccoc2)Cc2nnn(C)c21 (configuration not stated) | 15
Cn1ccnc1CNc1ccc(F)c(N2CCCS2(=O)=O)c1 | 0.314
CCn1ccnc1CN1CCCN(C(=O)c2ccc(C#N)cc2)CC1 | 0.738

The value of cytotoxicity at 70.5 h measured for the compound Cc1noc(C)c1CN(Cc1cccnc1)C1CN2CCC1CC2 (configuration not stated) turned out to be 25

The value of cytotoxicity at 70.5 h measured for the compound Cc1nc(C)n(CC2CCCN2Cc2ncc(-c3ccccc3)o2)n1 (configuration not stated) turned out to be -2.3

The value of cytotoxicity at 70.5 h measured for the compound Cc1cnn(CC2CCCN2C(=O)c2sccc2C#N)c1 (configuration not stated) turned out to be -2.76

The value of cytotoxicity at 70.5 h measured for the compound "COCC(=O)NCCc1ccc(I)s1" turned out to be -8.78

====

cytotoxicity at 70.5 h reference
measurement_description: Human HepG2 cell viability assay in 384 well format
Format: toxicity, cell-based
Parameters: dose 125 nL, time 70.5 hour; concentration not given beside the values
particulars: HepG2 cells, read-out: Inhibition
Enter your answer as a number in %; do not include the unit.

c1ccc(OC[C@]23COC[C@H]2CN(C2CCOCC2)C3)nc1 | -9.47
Cc1ccc(-c2noc([C@@H]3C[C@H](NC(=O)NC(C)C)CN3C)n2)cc1 | -7.56
COc1ccc2c(c1)OCC(CNC(=O)NC(C)(C)C)C2 (stereo unspecified) | -0.00962
CCOc1ncccc1Cn1cc(-c2nccn2C)nn1 | -10.3
CS(=O)(=O)N1CCN(c2cnnc(N3CCCC3)c2)CC1 | -12.9

Next compound, cytotoxicity at 70.5 h to be filled in.
The value of cytotoxicity at 70.5 h measured for the compound Cc1cnc(C(=O)N2CCCC(n3ccnc3C)C2)cn1 (stereo unspecified) turned out to be 61.9
